For reference, the following Ki results for Protein kinase C alpha type (Homo sapiens, UniProt P17252) were taken from various sources.

1. Cc1ccc(N2CCCNCC2)nc1C(=O)c1cccnc1N    500 to 2800 nM
2. c1cnc2[nH]nc(-c3nn(C4CCNCC4)c4ccccc34)c2c1    > 1250 nM
3. CCC[C@H]1CN(c2cccc(-c3n[nH]c4ncccc34)n2)CCCN1    < 500 nM
4. CNCCN(C)c1ccc(C(F)(F)F)c(C(=O)c2cccnc2N)n1    500 to 2800 nM
5. CC(O)(C1CC1)C1CN(c2ccc(F)c(-c3n[nH]c4ncccc34)n2)CCN1 (stereo not shown)    > 1250 nM

Batch request: Ki for each of the following molecules.
1. CC(C)C[C@H]1CN(c2ccc(C(F)(F)F)c(-c3n[nH]c4ncccc34)n2)C[C@@H](C)N1
2. NCC1CCCN(c2ccc(F)c(-c3n[nH]c4ncccc34)n2)C1 (stereo not shown)
3. Fc1ccc(N2CCCC(C3CCCN3)C2)nc1-c1n[nH]c2ncccc12 (stereo not shown)
4. C[C@H]1CN(c2cccc(-c3n[nH]c4ncc(Cl)cc34)n2)CCN1
5. Nc1ncccc1C(=O)c1nc(NC2CNC2)ccc1C(F)(F)F
6. Cc1ccccc1C1CN(c2ccc(C(F)(F)F)c(-c3n[nH]c4ncccc34)n2)CCN1 (stereo not shown)

Reply:
["< 500 nM", "> 1250 nM", "> 1250 nM", "< 500 nM", "500 to 2800 nM", "> 1250 nM"]

Batch request: Ki for each of the following molecules.
1. Nc1ncccc1C(=O)c1nc(OCC(N)c2ccccc2)ccc1C(F)(F)F (stereo not shown)
2. C=C(F)c1ccc(N2CCN[C@@H](CC(C)(C)F)C2)nc1C(=O)c1cccnc1N
3. Nc1ncccc1C(=O)c1nc(N2CCN[C@H](c3ccccc3)C2)ccc1C(F)(F)F
4. FC(F)(F)c1ccc(N2CC3CCC(C2)N3)nc1-c1n[nH]c2ncccc12
5. CCC1CN(c2ccc(C(F)(F)F)c(-c3n[nH]c4ncccc34)n2)CCC1C#N (stereo not shown)

Reply:
1: < 50 nM; 2: 500 to 2800 nM; 3: 500 to 2800 nM; 4: > 1250 nM; 5: > 1250 nM

Batch request: Ki for each of the following molecules.
1. C[C@H](Nc1ncc2nc(-c3c(Cl)cccc3Cl)n(CC3CCNC3)c2n1)c1ccccc1F (stereo partly shown)
2. NCCCCCCn1c(-c2c(Cl)cccc2Cl)nc2cnc(NCc3ccccc3F)nc21
3. Clc1cccc(Cl)c1-c1nc2cnc(NCc3cccs3)nc2n1C[C@H]1CCNC1
4. CC(C)CC1(CN)CN(c2ccc(C(F)(F)F)c(-c3n[nH]c4ncccc34)n2)CCO1 (stereo not shown)
5. CCC(C)(CN)c1csc(-c2ccnc3[nH]nc(Cl)c23)n1 (stereo not shown)
6. O=c1[nH]c2cnc(NC[C@H]3CCCNC3)nc2n1Cc1ccccc1C(F)(F)F
7. NC[C@@H]1CCCN1c1ccc(C(F)(F)F)c(-c2n[nH]c3ncccc23)n1

Reply:
["> 1000 nM", "> 10000 nM", "> 1000 nM", "< 2800 nM", "< 500 nM", "> 10000 nM", "> 1250 nM"]

Batch request: Ki for each of the following molecules.
1. Fc1ccc(N2CC3CCNCC3C2)nc1-c1n[nH]c2ncccc12 (stereo not shown)
2. NC1CCN(c2ccc(C(F)(F)F)c(-c3n[nH]c4ncccc34)n2)C1 (stereo not shown)
3. Nc1ncc(CCc2ccccc2)cc1C(=O)c1cccc(N2CCCNCC2)n1
4. CC(C)(C)[C@H](N)COc1ccc(C(F)(F)F)c(C(=O)c2cccnc2N)n1
5. CCC1(CC(C)C)CN(c2ccc(C(F)(F)F)c(-c3n[nH]c4ncccc34)n2)CCC1N (stereo not shown)
6. O=c1[nH]c2cnc(NCC3CCNC3)nc2n1Cc1c(F)cccc1Cl (stereo not shown)

Reply:
1: > 1250 nM; 2: > 1250 nM; 3: < 50 nM; 4: > 2800 nM; 5: < 500 nM; 6: > 1000 nM

Batch request: Ki for each of the following molecules.
1. CC[C@H]1CN(c2ccc(C(F)(F)F)c(-c3n[nH]c4ncccc34)n2)CCN1
2. CC(O)(c1ccccc1)C1CN(c2ccc(F)c(-c3n[nH]c4ncccc34)n2)CCN1 (stereo not shown)
3. CC(C)C[C@H]1CN(c2cccc(-c3n[nH]c4ncccc34)n2)C[C@H](C)N1
4. Fc1ccc(F)c(CNc2ncc3nc(-c4c(F)cccc4Cl)n(C[C@H]4CCNC4)c3n2)c1
5. CC1(C)CC1(O)C1CN(c2ccc(F)c(-c3n[nH]c4ncccc34)n2)CCN1 (stereo not shown)

Reply:
["> 1250 nM", "> 1250 nM", "> 1250 nM", "> 1000 nM", "> 1250 nM"]

====

For reference, the following Ki results for Protein kinase C alpha type (Homo sapiens, UniProt P17252) were taken from various sources.

Worked cases, answers included:
1. C=Cc1cnc(N)c(C(=O)c2nc(N3CCN[C@@H](CC(C)C)C3)ccc2C(F)(F)F)c1    < 50 nM
2. CC(C)CC1(O)CNCCN(c2ccc(F)c(-c3n[nH]c4ncccc34)n2)C1 (centres unmarked)    > 1250 nM
3. O=c1[nH]c2cnc(NCC3CCNC3)nc2n1Cc1ccccc1OC(F)(F)F (centres unmarked)    > 1000 nM
4. CCC[C@@H]1CN(c2ccc(C(F)(F)F)c(C(=O)c3cccnc3N)n2)C[C@H](CC(C)C)N1    < 50 nM
5. CC(C)CC1(C)CN(c2cccc(-c3n[nH]c4ncccc34)n2)CCN1 (centres unmarked)    < 500 nM

Batch request: Ki for each of the following compounds.
1. Fc1ccc(CNc2ncc3nc(-c4ccccc4Cl)n(C[C@@H]4CCCNC4)c3n2)cc1
2. CC(C)CC1CCCN(c2ccc(C(F)(F)F)c(-c3n[nH]c4ncccc34)n2)C1 (centres unmarked)
3. CC(C)CC1(O)CN(c2ccc(C(F)(F)F)c(-c3n[nH]c4ncccc34)n2)CCC1C#N (centres unmarked)

Reply:
["> 1000 nM", "> 1250 nM", "> 1250 nM"]

====

For reference, the following Ki results for Protein kinase C alpha type (Homo sapiens, UniProt P17252) were taken from various sources.

1) CC(C)C[C@H]1CN(c2ccc(Cl)c(C(=O)c3cccnc3N)n2)CCN1    < 0.05 µM
2) CC(C)(F)CC1CN(c2ccc(F)c(-c3n[nH]c4ncccc34)n2)CCN1 (stereo not shown)    > 1.25 µM
3) O=c1[nH]c2cnc(NC[C@H]3CCCNC3)nc2n1Cc1c(Cl)cccc1Cl    > 10 µM

# evaluate next
Ask: Provide the documented Ki with Protein kinase C alpha type (Homo sapiens, UniProt P17252) as the system for CC(C)(N)C1CCN(c2ccc(C(F)(F)F)c(-c3n[nH]c4ncccc34)n2)C1 (stereo not shown)
Reply: > 1.25 µM

====

For reference, the following pKi results for Protein kinase C alpha type (Homo sapiens, UniProt P17252) were taken from various sources.
pKi: −log10 of the molar value.

Worked cases, answers included:
1) CC(C)CC1(N)CCCN(c2ccc(C(F)(F)F)c(-c3n[nH]c4ncccc34)n2)C1 (stereo not drawn)    < 5.90
2) O=c1[nH]c2ccc(NC[C@@H]3CCNC3)nc2n1Cc1c(Cl)cccc1Cl    < 6.00
3) O=c1[nH]c2cnc(NC[C@@H]3CCNC3)nc2n1Cc1c(Cl)cccc1Cl    < 6.00
4) CC(=O)N1CCN(c2ccc(F)c(-c3n[nH]c4ncccc34)n2)CC1C(C)(O)C(C)C (stereo not drawn)    < 5.90
5) NCC1CCN(c2ccc(C(F)(F)F)c(-c3n[nH]c4ncccc34)n2)CC1    < 5.90
6) O=c1[nH]c2cnc(NCC3CCNC3)nc2n1Cc1cccc(Cl)c1Cl (stereo not drawn)    < 5.00

Batch request: pKi for each of the following molecules.
1. NCCCOc1ccc(C(F)(F)F)c(C(=O)c2cccnc2N)n1
2. CC(=O)NCC1CCCN(c2ccc(F)c(-c3n[nH]c4ncccc34)n2)C1 (stereo not drawn)
3. CC(C)(C)CC(N)C1CCCN(c2ccc(F)c(-c3n[nH]c4ncccc34)n2)C1 (stereo not drawn)
4. CC[C@](CN)(CNc1ccc(C(F)(F)F)c(C(=O)c2cccnc2N)n1)c1ccccc1

Reply:
["5.55 to 6.30", "< 5.90", "< 5.90", "> 7.30"]

Batch request: pKi for each of the following molecules.
1. O=c1[nH]c2ccc(NC[C@H]3CCNC3)nc2n1Cc1c(Cl)cccc1Cl
2. Cc1cc(N2CCC(N)CC2)nc(-c2n[nH]c3ncccc23)c1Cl
3. CC(C)C(C)(O)C1CN(c2nc(-c3n[nH]c4ncccc34)ccc2F)CCN1 (stereo not drawn)
4. O=c1[nH]c2cnc(NCC3CCNCC3)nc2n1-c1cccc(Cl)c1
5. CC(C)(N)C1CCN(c2ccc(F)c(-c3n[nH]c4ncccc34)n2)C1 (stereo not drawn)
6. NC[C@@H]1CCN(c2ccc(C(F)(F)F)c(-c3n[nH]c4ncccc34)n2)C1
7. NCCC1CCCN(c2ccc(F)c(-c3n[nH]c4ncccc34)n2)C1 (stereo not drawn)
8. CC[C@@H]1CNCCN1c1cccc(C(=O)c2cccnc2N)n1

Reply:
< 5.00
< 5.90
> 5.55
< 6.00
< 5.90
< 5.90
< 5.90
5.55 to 6.30
